Measured values drawn from ChEMBL document CHEMBL3507680 for this set.

assay: Human HepG2 cell viability assay in 384 well format; assay type: toxicity, cell-based; set-up: dose 125 nL, time 70.5 hour; concentration not given beside the values; details: HepG2 cells, read-out: Inhibition
assayMetric: cytotoxicity at 70.5 h (%)
Lab book: enter the figure in %, no units written.

**Q:** Input `CN(C)CCn1ccc2ccc(NC(=O)c3ccncc3F)cc21` , output reported cytotoxicity at 70.5 h.
**A:** -6.52

**Q:** Input `O=C(c1ccc(F)cc1)N1C[C@@H]2CCN(c3cccnc3)C[C@@H]2C1` , output reported cytotoxicity at 70.5 h.
**A:** -11.2

**Q:** Input `N[C@@H]1c2ccccc2C2(CCN(C(=O)c3ccc(Cl)cn3)CC2)[C@H]1O` , output reported cytotoxicity at 70.5 h.
**A:** 18.5

**Q:** Input `COc1cccc(C(=O)NS(=O)(=O)c2cncc(Br)c2)c1OC` , output reported cytotoxicity at 70.5 h.
**A:** -12.4

**Q:** Input CSC(C)C(=O)N1CCCN(Cc2nccn2C)CC1 (stereo unspecified) , output reported cytotoxicity at 70.5 h.
**A:** -1.04

**Q:** Input `CCc1c(C)n(CC(=O)OC)c2nc3ccccc3n2c1=O` , output reported cytotoxicity at 70.5 h.
**A:** -14.1

**Q:** Input `CS(=O)(=O)NCCNC(=O)C1(c2ccc(F)cc2)CC1` , output reported cytotoxicity at 70.5 h.
**A:** -0.0991

**Q:** Input O=C(Cc1c(F)cccc1Cl)NC1CCCCNC1=O (stereo unspecified) , output reported cytotoxicity at 70.5 h.
**A:** -5.89

**Q:** Input `Cc1nc(CN2C(=O)C[C@@H]3[C@@H]2CCN3S(C)(=O)=O)cs1` , output reported cytotoxicity at 70.5 h.
**A:** -4.41

**Q:** Input CN(C)C1(C(=O)NC2CCC(Oc3ccccc3C#N)CC2)CCC1 (stereo unspecified) , output reported cytotoxicity at 70.5 h.
**A:** -4.33

**Q:** Input `CN(Cc1cnccn1)C(=O)c1ccnc(OC2CCC2)c1` , output reported cytotoxicity at 70.5 h.
**A:** -9.6

----------
Assign cytotoxicity at 70.5 h to each entry below.
experiment: Human HepG2 cell viability assay in 384 well format; type: toxicity, cell-based; design: dose 125 nL, time 70.5 hour; concentration not given beside the values; settings: HepG2 cells, read-out: Inhibition
Lab book: enter the figure in %, no units written.

**Q:** Input `CC(C)Cc1cc(-c2cc(-c3ccc[nH]3)nc(N)c2C#N)n[nH]1` , output reported cytotoxicity at 70.5 h.
**A:** 21.1

**Q:** Input `Cc1nc(C)n(CCCNc2ncnc3onc(C)c23)n1` , output reported cytotoxicity at 70.5 h.
**A:** -3.47

**Q:** Input Cn1cc(CN2CCC3(CC(=O)N(c4ccc5c(c4)OCO5)C3)C2)cn1 (stereo not drawn) , output reported cytotoxicity at 70.5 h.
**A:** -9.01

**Q:** Input `CC(C)c1nc(CNC2CCN(C(=O)OC(C)(C)C)CC2)cs1` , output reported cytotoxicity at 70.5 h.
**A:** -8.72

**Q:** Input `Cc1nc(CN(C)Cc2csc(-c3cccs3)n2)co1` , output reported cytotoxicity at 70.5 h.
**A:** 6.2

**Q:** Input O=C(CCn1cccn1)NCC(c1cccs1)N1CCOCC1 (stereo not drawn) , output reported cytotoxicity at 70.5 h.
**A:** 25.6

**Q:** Input `Cc1ccc(-c2noc(CN3CCc4cncnc4C3)n2)cc1` , output reported cytotoxicity at 70.5 h.
**A:** 11.6

**Q:** Input `CC(C)OCc1cccc(CNc2cnn(C)c(=O)c2Cl)c1` , output reported cytotoxicity at 70.5 h.
**A:** 3.32

**Q:** Input CC(Oc1ccccc1)C(=O)N1CCCN(Cc2nccn2C)CC1 (stereo not drawn) , output reported cytotoxicity at 70.5 h.
**A:** -10.4

**Q:** Input Cc1ccc(CN(CCN(C)C)Cc2ccnn2C2CCCCO2)o1 (stereo not drawn) , output reported cytotoxicity at 70.5 h.
**A:** -3.26

**Q:** Input COCC1CN(Cc2cccc(C#N)c2)Cc2nccn2C1 (stereo not drawn) , output reported cytotoxicity at 70.5 h.
**A:** 1.24

**Q:** Input `CC(C)CO[C@H]1CN(S(=O)(=O)c2cn(C)cn2)[C@@H]2CCCO[C@H]12` , output reported cytotoxicity at 70.5 h.
**A:** 18

**Q:** Input `O=C(NC1CC1)N1CCc2ccc(=O)n(CC3CC3)c2CC1` , output reported cytotoxicity at 70.5 h.
**A:** -1.74

**Q:** Input CN(c1ccncn1)C1CC2(CCN(C(=O)Cc3cccs3)C2)C1 (stereo not drawn) , output reported cytotoxicity at 70.5 h.
**A:** -6.91

**Q:** Input CC(CO)(NC(=O)Nc1nncs1)C1CCCCC1 (stereo not drawn) , output reported cytotoxicity at 70.5 h.
**A:** 2.4

**Q:** Input Cc1cn2nc(N3CCCC3Cn3cccn3)sc2n1 (stereo not drawn) , output reported cytotoxicity at 70.5 h.
**A:** -4.17

**Q:** Input `CC(C)(C)NC(=O)c1ccccc1NC(=O)c1ccncc1` , output reported cytotoxicity at 70.5 h.
**A:** -5.9

**Q:** Input `Cc1cc(C)n(C2CN(c3ncnc4[nH]ccc34)C2)n1` , output reported cytotoxicity at 70.5 h.
**A:** -3.24

**Q:** Input O=C(c1cccnc1)N1CCOCC2(CCN(c3ncccn3)C2)C1 (stereo not drawn) , output reported cytotoxicity at 70.5 h.
**A:** -1.45

**Q:** Input CC(C)c1noc(CCCC(=O)NC(C)c2ccccn2)n1 (stereo not drawn) , output reported cytotoxicity at 70.5 h.
**A:** -9.67

**Q:** Input `COc1cc(F)c(S(=O)(=O)N2CCN(C)Cc3ccccc32)cc1OC` , output reported cytotoxicity at 70.5 h.
**A:** -10.1

**Q:** Input COc1ccc(CN2Cc3cnn(C)c3C(COCC3CC3)C2)cc1 (stereo not drawn) , output reported cytotoxicity at 70.5 h.
**A:** -1.5

**Q:** Input Cc1ccc(C(C)NCc2c(C(C)C)nn(C)c2N2CCOCC2)o1 (stereo not drawn) , output reported cytotoxicity at 70.5 h.
**A:** -5.88

**Q:** Input O=C(CC(SC1CCCCC1)C(=O)O)c1ccc(Br)cc1 (stereo not drawn) , output reported cytotoxicity at 70.5 h.
**A:** 0.38

**Q:** Input `CN(Cc1nc(N)nc(N(C)C)n1)Cc1cccc2ccccc12` , output reported cytotoxicity at 70.5 h.
**A:** -10.6

**Q:** Input Cc1cnn(C2CCCN(C(=O)c3ccc(N(C)C)nn3)C2)c1 (stereo not drawn) , output reported cytotoxicity at 70.5 h.
**A:** -10.7

**Q:** Input `CC(=O)N1CCCN(Cc2nnc(C(C)(C)C)o2)CC1` , output reported cytotoxicity at 70.5 h.
**A:** 5.23

**Q:** Input COc1c(C2CCCN2CC(=O)Nc2cc(C)no2)c(C)nn1C (stereo not drawn) , output reported cytotoxicity at 70.5 h.
**A:** -10.7

**Q:** Input `CCc1oc(C(=O)N(C)Cc2nonc2C)cc1CN(CC)CC` , output reported cytotoxicity at 70.5 h.
**A:** -16.6

**Q:** Input `Cc1cccc(NC(=O)Cn2ncc(SCC(N)=O)c(Cl)c2=O)c1C` , output reported cytotoxicity at 70.5 h.
**A:** -13.7

**Q:** Input `Cc1cccc(=O)n1CCCNc1nc(N(C)C)nc2c1CCNCC2` , output reported cytotoxicity at 70.5 h.
**A:** -3.24

**Q:** Input COCCc1noc(CN2CCCC(Cn3cncn3)C2)n1 (stereo not drawn) , output reported cytotoxicity at 70.5 h.
**A:** -7.84

**Q:** Input `O=C(NC[C@H]1OC[C@@H](NC2CCCCC2)[C@@H]1O)Nc1ccccc1` , output reported cytotoxicity at 70.5 h.
**A:** 15.8

**Q:** Input O=C1C(N2CCOCC2)CCCN1Cc1cccc(C(F)(F)F)c1 (stereo not drawn) , output reported cytotoxicity at 70.5 h.
**A:** -17.4

**Q:** Input `CC(=O)NCC(=O)N(CCN1CCOCC1)Cc1ccco1` , output reported cytotoxicity at 70.5 h.
**A:** 3.23

**Q:** Input `Cc1nc2sccn2c1CNc1ccc(C(=O)O)cc1` , output reported cytotoxicity at 70.5 h.
**A:** -7.07

**Q:** Input `O=C(C1CC=CC1)N1CCC2(CC1)OCCO2` , output reported cytotoxicity at 70.5 h.
**A:** -4.94

**Q:** Input Cc1csc(NC(=O)C(C)Oc2ccc3c(c2)OCO3)n1 (stereo not drawn) , output reported cytotoxicity at 70.5 h.
**A:** -9.39

**Q:** Input `COc1cccc(CN2CC[C@H]3[C@@H](C2)[C@H](c2ccsc2)CN3C(C)=O)c1` , output reported cytotoxicity at 70.5 h.
**A:** 28.6

**Q:** Input CC(C)CNC(=O)c1cc(C2CC2)nc2c1c(C1CCCN1)nn2C (stereo not drawn) , output reported cytotoxicity at 70.5 h.
**A:** 13.8

**Q:** Input CCOCC(O)CN1CCN(C(=O)c2ccccc2Cl)CC1 (stereo not drawn) , output reported cytotoxicity at 70.5 h.
**A:** -2.72

**Q:** Input `Brc1cccc(-c2nnc(CNCCn3cccn3)o2)c1` , output reported cytotoxicity at 70.5 h.
**A:** -10.8

**Q:** Input `O=C(NC[C@H]1OC[C@@H](NC2CCC(F)(F)CC2)[C@@H]1O)c1ccccc1` , output reported cytotoxicity at 70.5 h.
**A:** -0.0244

**Q:** Input `COCc1nc(CNc2cccc(-c3ncon3)c2)cs1` , output reported cytotoxicity at 70.5 h.
**A:** 29.2

**Q:** Input `CCCN1C[C@H](NC(=O)c2ccccc2F)[C@@H](c2ccc(OC)cc2)C1` , output reported cytotoxicity at 70.5 h.
**A:** 0.779

**Q:** Input CN(C)C(CNC(=O)N(Cc1ccco1)C1CC1)c1cccs1 (stereo not drawn) , output reported cytotoxicity at 70.5 h.
**A:** -11.4

**Q:** Input COc1ccc(F)cc1C[S+]([O-])CC(=O)NCc1ccccc1C (stereo not drawn) , output reported cytotoxicity at 70.5 h.
**A:** 11

**Q:** Input `CCCc1nnc2sc(C3CCN(CCOC)CC3)nn12` , output reported cytotoxicity at 70.5 h.
**A:** -3.34
